Below: a set of entries, each annotated with reported processed/unprocessed PreF trimer binding ratio.
test-system: T1, Processed stabilized hMPV PreF trimer (115BV) (human metapneumovirus, strain B2)
T1 construct: also called Processed hMPV PreF trimer; processed PreF
measurement-notes: BLI, ratio to unprocessed PreF trimer
The reply should be a number, written without any unit.

These recorded examples may help you get a feel for the data.
# binder, quantitative-readout
rows = [
    ("M2A11 (antibody, V domains shown, IgG) VH: QVQLQESGPGLVKPSETLSLTCTVSGGSITSHYWSWVRQPPGKGLEWIAYIYYSGSTDYNPSLKSRVTISLDTSKNQVSLRLNSVTTADTAVYFCARCMPLYHVMHVWGHGTTVTVSS VL: QSVLTQPPSVSGAPGQRVTISCTGSSSDIGAGSDVHWYQQLPGTAPKLLIYGNTNRPSGVPDRFSGSKSGTSASLAITGLQAEDEADYYCQSYDSGLSGYVFGGGTKLTVL", 0.23),
    ("M2A03 (antibody, V domains shown, IgG) VH: QLQLQESGPGLVKPSETLSLTCSVSGGSISSSSNSWTWIRQPPGKGLEWIATIFYFGSTYYNPSLRSRVAISVDTSENQFSLKLTSVTAADTAVYFCARHILSSSGVSGWLDPWGQGTLVTVSS VL: SYELTQPPSVSVSPGQTASITCSGEKLGSKYAHWYQQKPGRSPVLVIYQDTKRPSGIPERFSGSNSGSTATLTISGTQAMDEADYYCQAWDSSSFVFGTGTTVTVL", 0.29),
    ("M2E04 (antibody, V domains shown, IgG) VH: QVQLQESGPGLVKPSEILSLTCTVSRFSINSGYYWGWIRQPPGKGLEWIGCISHAGSIYSNPSLESRVTLSLDTSKNQFSLKLTSVIAADTATYYCAASSNWHNALEYWGQGTLVVVSS VL: QSVLTQPPSASGTPGQTVTISCSGSRSNMGINWVYWYQQLPGTAPKLVIYRNSQRPSGVPDRFSGSQSGTSASLAISGLRSEDEAVYYCAVWDDSLDGRLFGGGTKLTVL", 0.51),
    ("M3E10 (antibody, V domains shown, IgG) VH: QVQLVQSGAEVKKPGSSVKVSCKASGGTINSYAISWVRQAPGQGPEWLGGIIPIFGTANYAQNFPGRVTITADASTSTVYMELSSLRSDDTAIYYCARGTRYIAVMVPSMQDYYFFGMDVWGQGTTVTVSS VL: DIQLTQSPSFLSASVGDRVTITCRASQGISSYLAWYQQKPGQAPKLLIYAASTLQSGVPSRFSGSGSGTEFTLTISSLQPEDFATYYCQQVTSYPFSITFGQGTRLEIK", 0.48),
]

# next binder below
input: For the binder shown here, M3D05 (antibody, V domains shown, IgG) VH: QVQLVQSGAEVKQPGASVKVSCKASGYTFSGYYIQWVRQAPGQGLEWMGWINPNSGGTNFAQKFQGRVTMTSDTSTSAAYMELSSLRSDDTAVYYCVRGQQLTRQYYFGMDVWGQGTTVTVSS VL: QSVLTQPPSVSGAPGQRVIISCSGSSSNIRSNAVNWYQQLPGKAPKLLIFYDGLLPSGVSDRFSGSKTGNSASLAISGLQSEDEADYYCAAWDDSLNGPVFGGGTKLTVL , give the reported processed/unprocessed PreF trimer binding ratio.
output: 0.25
